Tested on: barnyardgrass (Echinochloa crus-galli)
Test: Test B flooded paddy test, plant response rating
Assay type: in vivo
Conditions: 250 g ai/ha; Flood; scale of 0 to 100 where 0 is no effect and 100 is complete control; 13 to 15 days
recorded metric: Plant response rating, Barnyardgrass
# answer = number (no unit)

[in] What measured Plant response rating, Barnyardgrass is associated with CCOc1cccc(Oc2ncc(Cl)cn2)c1C(=O)OCCC(F)(F)F on barnyardgrass (Echinochloa crus-galli)?
[out] 30

[in] What measured Plant response rating, Barnyardgrass is associated with C=C(C)CCOC(=O)c1c(Br)cccc1Oc1ncc(Cl)cn1 on barnyardgrass (Echinochloa crus-galli)?
[out] 0

[in] What measured Plant response rating, Barnyardgrass is associated with N#Cc1cccc(Oc2ncc(Cl)cn2)c1COCC(F)(F)C(F)(F)F on barnyardgrass (Echinochloa crus-galli)?
[out] 45

[in] What measured Plant response rating, Barnyardgrass is associated with CC(=NOC(C)C)c1c(F)cccc1Oc1ncc(Cl)cn1 on barnyardgrass (Echinochloa crus-galli)?
[out] 0

[in] What measured Plant response rating, Barnyardgrass is associated with N#Cc1cccc(Oc2ncc(Cl)cn2)c1C(=O)CCCC(F)(F)F on barnyardgrass (Echinochloa crus-galli)?
[out] 0

Origin of the recorded values: patent US11053204B2
